tgt: P-glycoprotein (P-gp) (Homo sapiens (Human), UniProt P08183)
Sequence (P08183 whole entry): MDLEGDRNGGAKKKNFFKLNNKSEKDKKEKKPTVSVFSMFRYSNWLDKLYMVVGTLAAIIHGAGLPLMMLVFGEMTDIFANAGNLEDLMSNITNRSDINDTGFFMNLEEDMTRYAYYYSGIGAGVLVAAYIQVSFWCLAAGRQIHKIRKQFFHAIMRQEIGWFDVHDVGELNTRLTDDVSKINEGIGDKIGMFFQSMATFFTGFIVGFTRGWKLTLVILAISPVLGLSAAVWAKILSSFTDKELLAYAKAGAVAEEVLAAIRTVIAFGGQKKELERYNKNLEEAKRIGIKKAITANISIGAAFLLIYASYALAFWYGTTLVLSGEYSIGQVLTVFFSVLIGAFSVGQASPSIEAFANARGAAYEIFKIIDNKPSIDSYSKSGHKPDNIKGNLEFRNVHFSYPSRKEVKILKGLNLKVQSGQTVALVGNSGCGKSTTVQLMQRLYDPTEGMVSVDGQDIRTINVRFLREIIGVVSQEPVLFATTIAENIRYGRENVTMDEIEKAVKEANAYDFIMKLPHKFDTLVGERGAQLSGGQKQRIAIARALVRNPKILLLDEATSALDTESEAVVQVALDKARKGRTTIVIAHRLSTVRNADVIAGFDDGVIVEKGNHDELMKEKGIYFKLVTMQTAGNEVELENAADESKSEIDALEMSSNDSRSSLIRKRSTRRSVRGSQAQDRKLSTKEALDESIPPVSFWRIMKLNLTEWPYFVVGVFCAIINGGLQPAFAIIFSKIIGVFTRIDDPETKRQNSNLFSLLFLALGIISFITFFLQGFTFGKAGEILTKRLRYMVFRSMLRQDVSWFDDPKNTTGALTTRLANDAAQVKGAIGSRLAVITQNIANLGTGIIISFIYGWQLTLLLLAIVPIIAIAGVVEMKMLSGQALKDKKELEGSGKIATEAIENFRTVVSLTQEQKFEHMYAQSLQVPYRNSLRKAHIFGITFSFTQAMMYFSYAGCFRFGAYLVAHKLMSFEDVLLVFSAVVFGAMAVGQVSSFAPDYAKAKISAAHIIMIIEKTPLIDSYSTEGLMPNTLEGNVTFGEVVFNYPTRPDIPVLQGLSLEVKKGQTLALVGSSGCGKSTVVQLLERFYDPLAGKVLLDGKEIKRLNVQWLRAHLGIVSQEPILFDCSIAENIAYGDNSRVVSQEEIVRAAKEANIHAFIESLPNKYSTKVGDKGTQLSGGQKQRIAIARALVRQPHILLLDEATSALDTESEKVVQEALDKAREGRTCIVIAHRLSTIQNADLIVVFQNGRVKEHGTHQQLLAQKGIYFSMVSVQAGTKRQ
assay.notes: MDCK-MDR1 permeability / efflux assay
Type: in vitro ADME
stated.conditions: dog, MDCK-MDR1, pH 7.4, efflux ratio, read-out: MDCK-MDR1 ER
Each entry gets class 0 if its efflux ratio at 120 min, 10 μM stays under 3, and class 1 if its efflux ratio at 120 min, 10 μM is 3 or above.

Inquiry: Hello, I need to know if O=C1CCc2cc([C@H](O)CN3C[C@H]4C[C@H](Oc5ccccc5F)[C@H](O)[C@@]4(O)C3)cc(F)c2N1 (single isomer, unassigned) [Example 29B] has measured efflux ratio at 120 min, 10 μM not below 3. Thanks!
Reply text: class 1

---

# Lookup of reported IC50 keyed by entry
tgt: UniProtKB Q12809
Sequence (Q12809 whole entry): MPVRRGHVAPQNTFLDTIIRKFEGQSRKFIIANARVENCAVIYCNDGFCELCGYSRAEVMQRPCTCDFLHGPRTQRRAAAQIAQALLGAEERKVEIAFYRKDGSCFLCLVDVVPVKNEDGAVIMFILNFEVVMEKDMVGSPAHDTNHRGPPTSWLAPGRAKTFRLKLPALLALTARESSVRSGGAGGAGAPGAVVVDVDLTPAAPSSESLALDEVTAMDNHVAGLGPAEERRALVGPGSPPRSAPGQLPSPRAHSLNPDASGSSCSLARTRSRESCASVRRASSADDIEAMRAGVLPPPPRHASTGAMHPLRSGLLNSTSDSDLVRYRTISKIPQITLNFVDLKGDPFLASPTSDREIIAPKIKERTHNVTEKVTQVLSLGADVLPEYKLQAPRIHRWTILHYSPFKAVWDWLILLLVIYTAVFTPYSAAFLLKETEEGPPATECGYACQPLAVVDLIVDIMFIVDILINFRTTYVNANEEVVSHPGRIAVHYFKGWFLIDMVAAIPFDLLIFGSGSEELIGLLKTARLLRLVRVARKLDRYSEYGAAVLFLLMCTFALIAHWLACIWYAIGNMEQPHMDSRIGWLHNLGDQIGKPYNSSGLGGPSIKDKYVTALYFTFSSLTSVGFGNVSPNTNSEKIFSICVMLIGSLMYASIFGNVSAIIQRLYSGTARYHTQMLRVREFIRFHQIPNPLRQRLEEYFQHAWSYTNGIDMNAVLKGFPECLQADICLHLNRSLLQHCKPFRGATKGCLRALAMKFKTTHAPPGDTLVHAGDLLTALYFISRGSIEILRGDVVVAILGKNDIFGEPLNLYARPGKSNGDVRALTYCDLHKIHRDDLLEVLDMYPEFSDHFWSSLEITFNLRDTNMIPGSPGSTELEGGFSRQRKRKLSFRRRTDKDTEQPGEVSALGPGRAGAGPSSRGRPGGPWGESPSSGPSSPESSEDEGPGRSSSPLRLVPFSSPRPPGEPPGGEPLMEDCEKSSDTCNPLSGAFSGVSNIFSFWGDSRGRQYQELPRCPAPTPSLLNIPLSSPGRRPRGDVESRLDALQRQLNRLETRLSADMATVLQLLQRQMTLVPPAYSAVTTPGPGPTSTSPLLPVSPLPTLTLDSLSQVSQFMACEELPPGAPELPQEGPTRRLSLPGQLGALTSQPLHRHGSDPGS
assay.notes: hERG Qpatch assay
Assay type: cell-based
stated.conditions: Table 2, hERG expressing CHO-K1 cells
Report only the number, with the unit µM understood.

Here are 5 compounds together with their reported answers.
O=C1Nc2c(F)cc([C@H](O)CN3C[C@H]4C[C@H](Oc5ccccc5)C[C@@]4(O)C3)cc2CO1 (single isomer, unassigned) [Example 33B] | 4.9
O=C1Nc2c(F)cc([C@H](O)CN3C[C@H]4C[C@H](Oc5ccccc5)C[C@@]4(O)C3)cc2CS1 (single isomer, unassigned) [Example 16B] | 0.2
O=C1Nc2ccc([C@@H](O)CN3C[C@H]4C[C@H](Oc5ccccc5)C[C@@]4(O)C3)cc2CO1 (single isomer, unassigned) [Example 28A] | 2.4
O=c1ccc2cc([C@@H](O)CN3C[C@H]4C[C@H](Oc5ccccc5)C[C@@]4(O)C3)ccc2[nH]1 (single isomer, unassigned) | 2.8
O=C1CCc2cc([C@@H](O)CN3C[C@@H]4C[C@@H](Oc5cccc(F)c5F)C[C@]4(O)C3)ccc2N1 (single isomer, unassigned) [Example 24C] | 1.2

The reported IC50 of the compound O=c1[nH]c2ccc([C@@H](O)CN3C[C@H]4C[C@H](Oc5ccccc5)C[C@@]4(O)C3)cc2s1 (single isomer, unassigned) [Example 17A] was 0.2

Input O=C1CCc2cc([C@@H](O)CN3C[C@H]4C[C@H](Oc5ccccc5)C[C@@]4(O)C3)c(F)cc2N1 (single isomer, unassigned) [Example 10A] . Output IC50: 2.1

Record O=c1[nH]c2ccc([C@H](O)CN3C[C@H]4C[C@H](Oc5ccccc5F)C[C@@]4(O)C3)cc2s1 (single isomer, unassigned) [Example 18B] , field IC50: 1.2

IC50 reading for O=C1CCc2cc([C@@H](O)CN3C[C@H]4C[C@H](Oc5ccccc5)C[C@@]4(O)C3)ccc2N1 : 10.7

What the record says about O=C1CCc2cc(C(O)CN3C[C@H]4C[C@H](Oc5ccccc5F)C[C@@]4(O)C3)ccc2N1 (single isomer, unassigned) : IC50 is 5.9

Kindly note the recorded IC50 for O=C1CCCc2cc([C@H](O)CN3C[C@H]4C[C@H](Oc5ccccc5)C[C@@]4(O)C3)ccc2N1 (single isomer, unassigned) , which is 15.2

Lookup result for O[C@@H](CN1C[C@H]2C[C@H](Oc3ccc(F)cc3F)C[C@@]2(O)C1)c1ccc2[nH]ncc2c1 ; measured IC50: 3.6

Memo: O=C1Nc2c(F)cc([C@@H](O)CN3C[C@H]4C[C@H](Oc5ccccc5)C[C@@]4(O)C3)cc2CS1 (single isomer, unassigned) [Example 16A] , reported IC50: 0.4
